Reference for the values: patent US20260201064A1

- TESTED ON: T1, recombinant human ASM protein (human, UniProt P17405 47-630)
- T1 construct: Recombinant human ASM in solution; also called acid sphingomyelinase (ASM) protein
- T1 sequence: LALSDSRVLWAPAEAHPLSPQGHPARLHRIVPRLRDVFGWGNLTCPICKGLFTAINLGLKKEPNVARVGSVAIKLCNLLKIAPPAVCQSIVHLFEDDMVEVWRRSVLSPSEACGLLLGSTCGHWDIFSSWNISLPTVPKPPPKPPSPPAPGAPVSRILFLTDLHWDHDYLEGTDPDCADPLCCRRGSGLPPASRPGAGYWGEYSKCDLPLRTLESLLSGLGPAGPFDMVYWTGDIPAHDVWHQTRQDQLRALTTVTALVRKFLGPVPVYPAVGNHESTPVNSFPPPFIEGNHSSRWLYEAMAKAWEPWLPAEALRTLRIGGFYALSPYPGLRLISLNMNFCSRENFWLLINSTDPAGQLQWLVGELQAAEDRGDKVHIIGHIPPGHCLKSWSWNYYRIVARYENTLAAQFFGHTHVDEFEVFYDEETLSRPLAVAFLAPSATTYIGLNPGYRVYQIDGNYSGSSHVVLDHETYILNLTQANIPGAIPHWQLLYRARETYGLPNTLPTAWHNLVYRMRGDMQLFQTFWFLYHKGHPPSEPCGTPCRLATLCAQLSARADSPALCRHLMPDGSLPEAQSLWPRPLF
- PROTOCOL: BLI (Octet), antibody on AHC sensor
- Protocol: The binding affinity, to the ASM protein, of the produced antibodies specifically binding to the ASM protein and the interactive dynamics therebetween were measured using an Octet® QK384 system (Pall Life Sciences). First, an antibody specifically binding to the ASM protein produced in Example 1 was captured using an anti-human IgG Fc capture (AHC) biosensor, and 1.25, 2.5, 5, 10, or 20 nM recombinant human ASM protein solution was added thereto. […]
Would you kindly list koff for each of these binders?
// return numeric value only (unit: s⁻¹, not printed)

Problem: Give koff for the following binder: #9104a-A8 (antibody, human IgG4 S228P, lambda, V domains shown, VH of #9104v-H33 with VL of #9104v-L20; full-length IgG, lambda) VH: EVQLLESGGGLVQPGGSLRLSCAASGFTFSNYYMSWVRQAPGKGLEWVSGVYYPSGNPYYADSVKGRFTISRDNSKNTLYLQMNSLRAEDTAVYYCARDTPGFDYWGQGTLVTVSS VL: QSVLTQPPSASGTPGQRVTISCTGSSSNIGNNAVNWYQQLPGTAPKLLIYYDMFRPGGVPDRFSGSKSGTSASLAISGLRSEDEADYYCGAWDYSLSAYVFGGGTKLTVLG
Result: 4.51e-05

Problem: Dear colleague, please send me the reported koff for #9104a-E3 (antibody, human IgG4 S228P, lambda, V domains shown, VH of #9104v-H13 with VL of #9104v-L65; full-length IgG, lambda) VH: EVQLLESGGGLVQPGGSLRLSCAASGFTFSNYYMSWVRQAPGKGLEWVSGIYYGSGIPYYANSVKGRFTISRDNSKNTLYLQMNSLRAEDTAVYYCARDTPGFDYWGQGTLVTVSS VL: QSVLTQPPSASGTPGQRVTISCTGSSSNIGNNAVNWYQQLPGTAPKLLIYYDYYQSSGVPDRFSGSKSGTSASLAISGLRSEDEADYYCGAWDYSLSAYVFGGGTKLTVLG when you can.
Result: 5.74e-05
